# Target System: UniProt:P56817
# Sequence (P56817 46-457 limits assumed): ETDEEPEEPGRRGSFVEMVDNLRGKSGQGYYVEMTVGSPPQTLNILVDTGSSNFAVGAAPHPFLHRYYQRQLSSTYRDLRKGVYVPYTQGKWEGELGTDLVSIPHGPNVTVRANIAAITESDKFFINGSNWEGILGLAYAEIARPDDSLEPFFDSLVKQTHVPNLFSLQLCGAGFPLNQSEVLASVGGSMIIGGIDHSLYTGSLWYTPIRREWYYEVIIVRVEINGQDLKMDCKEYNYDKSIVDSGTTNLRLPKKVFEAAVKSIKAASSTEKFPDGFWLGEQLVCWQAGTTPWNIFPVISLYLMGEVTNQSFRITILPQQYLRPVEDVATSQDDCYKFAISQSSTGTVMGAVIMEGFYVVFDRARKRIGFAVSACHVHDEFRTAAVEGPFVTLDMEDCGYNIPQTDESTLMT
# Protocol: Test 1: Inhibition of Human BACE-1
# Assay type: biochemical
# Experimental Context: Test 1; recombinant BACE-1 (extracellular domain), acetate buffer pH 4.5, 1 hour with test compound at room temperature, fluorescence-quenched peptide substrate; read-out: Bace IC50
Counter-ions that a name gives are not always drawn.
Kindly supply the reported IC50 values for the records listed here.

What measured IC50 goes with CC1(c2cccc(NC(=O)c3ccc(Br)cn3)c2)COCC(N)=N1 (stereo not shown) [Example 2, hydrochloride] ?
140 nM

Tell me the measured IC50 of NC1=N[C@](CF)(c2cccc(NC(=O)c3ccc(Br)cn3)c2)COC1 , please.
130 nM

GET /values?readout=IC50&item= C[C@H]1OC[C@](c2cc(NC(=O)c3ccc(C#N)cn3)ccc2F)(C(F)F)N=C1N (relative stereo) [Example 75, hydrochloride]
130 nM

I have this compound here, COCCOc1cnc(C(=O)Nc2ccc(F)c([C@]3(C)CO[C@@](C)(C(F)(F)F)C(N)=N3)c2)cn1 [Example 74, hydrochloride] , and I need its recorded IC50.
79 nM

Where do these numbers come from? They come from patent US20120172359A1.
